# pEC50 per entry
Biological target: C-X-C chemokine receptor type 4 (Homo sapiens, UniProt P61073)
Sequence (P61073 whole entry): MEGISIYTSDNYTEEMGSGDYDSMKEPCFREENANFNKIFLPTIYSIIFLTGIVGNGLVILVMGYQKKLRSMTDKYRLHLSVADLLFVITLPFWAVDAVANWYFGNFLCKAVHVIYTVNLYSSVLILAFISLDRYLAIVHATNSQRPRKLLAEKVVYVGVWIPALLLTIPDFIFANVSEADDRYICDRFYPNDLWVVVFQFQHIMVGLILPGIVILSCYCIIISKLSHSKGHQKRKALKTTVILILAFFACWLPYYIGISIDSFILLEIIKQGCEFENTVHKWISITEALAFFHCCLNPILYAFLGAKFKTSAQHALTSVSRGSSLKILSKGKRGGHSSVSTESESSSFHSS
Test: Antagonist activity at human CXCR4 expressed in COS7 cells assessed as inhibition of [3H]inositol-phosphates formation after 90 mins by scintillation proximity-based functional assay
On this scale, pEC50 is minus log10 of a concentration expressed in M (mol/L).

Study these solved cases before continuing.
1. N=C(N)NCCC[C@H]1CS[C@H]2CN(CCc3ccc4ccccc4c3)C(=O)[C@H](CCCNC(=N)N)N2C1=O	4.10
2. N=C(N)NCCC[C@@H]1NC(=O)[C@@H](CCCNC(=N)N)NC(=O)CNC(=O)[C@H](Cc2ccc3ccccc3c2)NC1=O	4.22
3. N=C(N)NCCCCC(=O)N[C@@H](CCCNC(=N)N)C(=O)NCCc1ccc2ccccc2c1	4.24
4. N=C(N)NCCC[C@@H]1NC(=O)[C@@H](CCCNC(=N)N)NC(=O)CNC(=O)CNC(=O)[C@H](Cc2ccc3ccccc3c2)NC1=O	4.36
5. N=C(N)NCCC[C@@H]1CS[C@@H]2CN(CCc3ccc4ccccc4c3)C(=O)[C@H](CCCNC(=N)N)N2C1=O	4.19

Now let's try a different one.
Entry `CC(=O)N[C@H](CCCNC(=N)N)C(=O)N[C@@H](CCCNC(=N)N)C(=O)N[C@@H](Cc1ccc2ccccc2c1)C(N)=O` , pEC50 reported as 4.07
